- ASSAY_TEXT: Half-life in Sprague-Dawley rat at 10 mg/kg, po measured after 24 hrs by LC/MS/MS analysis
- Assay type: ADME, organism-based
- EXPERIMENTAL_CONTEXT: in vivo
MEASUREMENT_LABEL: half-life (h)
State just the number; it will be interpreted in h.

Request: Sample N#Cc1ccc(N[C@H]2CC[C@H](N(C(=O)NCc3ccccc3)c3ccc(N4CCN(C5CCN(c6ccc7c(c6)C(=O)N(C6CCC(=O)NC6=O)C7=O)CC5)CC4)cc3)CC2)nc1 (stereo partly specified) — what was its half-life?
Response: 3.04

* * *

- ASSAY_TEXT: Antiproliferative activity against human MRC5 cells assessed as inhibition of cell growth incubated for 5 days by CCK8 assay
- Format: toxicity, cell-based
MEASUREMENT_LABEL: IC50 at 5 days

Request: Sample N#Cc1ccc(N[C@H]2CC[C@H](N(C(=O)NCc3ccccc3)c3ccc(N4CCN(C5CCN(c6cc7c(cc6F)C(=O)N(C6CCC(=O)NC6=O)C7=O)CC5)CC4)cc3)CC2)nc1 (stereo partly specified) — what was its IC50 at 5 days?
Response: > 10 µM

* * *

- ASSAY_TEXT: AUC (0 to t) in Sprague-Dawley rat at 2.5 mg/kg, iv measured after 24 hrs by LC/MS/MS analysis
- Format: ADME, organism-based
- EXPERIMENTAL_CONTEXT: in vivo
MEASUREMENT_LABEL: AUC(0-t) at 24 h (ng·h/mL)
State just the number; it will be interpreted in ng·h/mL.

Request: Sample N#Cc1ccc(N[C@H]2CC[C@H](N(C(=O)NCc3ccccc3)c3ccc(N4CCN(C5CCN(c6ccc7c(c6)C(=O)N(C6CCC(=O)NC6=O)C7=O)CC5)CC4)cc3)CC2)nc1 (stereo partly specified) — what was its AUC(0-t) at 24 h?
Response: 4720

* * *

- ASSAY_TEXT: Antiproliferative activity against human MCF-10A cells assessed as inhibition of cell growth incubated for 5 days by CCK8 assay
- Assay type: toxicity, cell-based
MEASUREMENT_LABEL: IC50 at 5 days

Request: Sample N#Cc1ccc(N[C@H]2CC[C@H](N(C(=O)NCc3ccccc3)c3ccc(N4CCN(C5CCN(c6cc7c(cc6F)C(=O)N(C6CCC(=O)NC6=O)C7=O)CC5)CC4)cc3)CC2)nc1 (stereo partly specified) — what was its IC50 at 5 days?
Response: > 10 µM

* * *

- ASSAY_TEXT: Cmax in Sprague-Dawley rat at 10 mg/kg, po measured after 24 hrs by LC/MS/MS analysis
- Assay type: ADME, organism-based
- EXPERIMENTAL_CONTEXT: in vivo
MEASUREMENT_LABEL: Cmax (ng/mL)
State just the number; it will be interpreted in ng/mL.

Request: Sample N#Cc1ccc(N[C@H]2CC[C@H](N(C(=O)NCc3ccccc3)c3ccc(N4CCN(C5CCN(c6ccc7c(c6)C(=O)N(C6CCC(=O)NC6=O)C7=O)CC5)CC4)cc3)CC2)nc1 (stereo partly specified) — what was its Cmax?
Response: 308

* * *

- ASSAY_TEXT: Cmax in Sprague-Dawley rat at 2.5 mg/kg, iv measured after 24 hrs by LC/MS/MS analysis
- Assay type: ADME, organism-based
- EXPERIMENTAL_CONTEXT: in vivo
MEASUREMENT_LABEL: Cmax (ng/mL)
State just the number; it will be interpreted in ng/mL.

Request: Sample N#Cc1ccc(N[C@H]2CC[C@H](N(C(=O)NCc3ccccc3)c3ccc(N4CCN(C5CCN(c6ccc7c(c6)C(=O)N(C6CCC(=O)NC6=O)C7=O)CC5)CC4)cc3)CC2)nc1 (stereo partly specified) — what was its Cmax?
Response: 2590

* * *

- ASSAY_TEXT: Antiproliferative activity against HEK293 cells assessed as inhibition of cell growth incubated for 5 days by CCK8 assay
- Type: toxicity, cell-based
- EXPERIMENTAL_CONTEXT: human
MEASUREMENT_LABEL: IC50 at 5 days

Request: Sample N#Cc1ccc(N[C@H]2CC[C@H](N(C(=O)NCc3ccccc3)c3ccc(N4CCN(C5CCN(c6cc7c(cc6F)C(=O)N(C6CCC(=O)NC6=O)C7=O)CC5)CC4)cc3)CC2)nc1 (stereo partly specified) — what was its IC50 at 5 days?
Response: > 10 µM

Just for reference, ChEMBL document CHEMBL6071181 is where these values come from.
